Measured values drawn from PubChem BioAssay (NCI) for this set.

system: IGROV1 ovarian; assay: NCI-60 one-dose screen, 48 h; details: 10 µM unless noted
The panel holds about 83,000 compounds, 20% with a hit somewhere; the sample as a whole holds those more often. The source made the active and inactive calls. How the source made its calls: active means growth percent below 10; inactive means the rest.
Labels: active, inactive

COMPOUND	CLASS_NAME
c1ccc2[nH]c(-c3ccc(Nc4nc(N5CCCCC5)nc(N5CCOCC5)n4)cc3)nc2c1	inactive
c1cnc2[nH]cc(-c3csc(-c4cn(CCCN5CCCCC5)c5ccccc45)n3)c2c1	inactive
COc1ccc(C(=O)/C=C/c2cc(-c3cc(OC)c(OC)c(OC)c3)n[nH]2)cc1OC	active
CCCCCCCC(=O)SCC/C=C/[C@@H]1CC(=O)NCc2cccc(n2)CN(Cc2ccc3ccccc3c2)CC(=O)N[C@@H](C(C)C)C(=O)O1	inactive
Nc1nc2c3ccncc3cc(-c3cccc(Cl)c3)c2c2cnccc12	inactive
Cc1cc(Cl)c2c(N(C)C)cccc2n1	inactive
CCN1CCN(C(=O)[C@@]2(C)CC[C@]3(C)CC[C@]4(C)C(=CC(=O)[C@@H]5[C@@]6(C)CC[C@H](OC7C[C@@H](O)[C@@H](O)C(C)O7)C(C)(C)[C@@H]6CC[C@]54C)[C@@H]3C2)CC1 (stereo partly drawn)	inactive
O=C1c2cc3c(cc2-c2c1c1ccc(F)cc1c(=O)n2CCCN1CCOCC1)OCO3	inactive
